MEASUREMENT_TARGET: T1, UL128/UL130 co-expressed from MVA in BHK-21 cells (human cytomegalovirus, UniProt P16837 28-171; P16772 1-214)
T1 construct: whole, on cells
T1 sequence (P16837 28-171 limits assumed, chain 1 of 2): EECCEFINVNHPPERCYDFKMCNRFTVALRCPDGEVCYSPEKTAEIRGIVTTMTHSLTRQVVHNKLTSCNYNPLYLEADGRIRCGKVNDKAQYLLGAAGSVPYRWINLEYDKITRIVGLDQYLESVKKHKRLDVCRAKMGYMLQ
T1 sequence (P16772 26-214 limits assumed, chain 2 of 2): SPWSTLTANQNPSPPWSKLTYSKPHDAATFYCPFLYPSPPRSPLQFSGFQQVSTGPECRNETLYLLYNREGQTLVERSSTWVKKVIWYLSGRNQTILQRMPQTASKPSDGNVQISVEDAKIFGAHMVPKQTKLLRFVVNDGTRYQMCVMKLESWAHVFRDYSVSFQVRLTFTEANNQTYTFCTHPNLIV
PROTOCOL_NOTES: intracellular FC, MVA-infected BHK-21

BINDER	binding result
18F10 (antibody, V domains shown, also called NAb 18F10) VH: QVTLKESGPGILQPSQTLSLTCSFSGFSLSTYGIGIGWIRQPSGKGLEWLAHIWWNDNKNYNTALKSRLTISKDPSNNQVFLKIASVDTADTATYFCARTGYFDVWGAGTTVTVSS VL: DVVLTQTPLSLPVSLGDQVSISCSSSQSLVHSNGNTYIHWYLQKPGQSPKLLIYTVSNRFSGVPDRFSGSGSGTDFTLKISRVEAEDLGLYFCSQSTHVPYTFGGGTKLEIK	no binding
21E9 (antibody, V domains shown, also called NAb 21E9) VH: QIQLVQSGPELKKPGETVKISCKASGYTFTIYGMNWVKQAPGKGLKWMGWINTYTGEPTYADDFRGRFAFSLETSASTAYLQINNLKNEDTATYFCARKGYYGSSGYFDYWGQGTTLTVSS VL: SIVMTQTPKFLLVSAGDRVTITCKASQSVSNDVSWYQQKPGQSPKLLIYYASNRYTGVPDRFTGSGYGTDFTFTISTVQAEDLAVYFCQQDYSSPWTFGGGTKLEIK	no binding
54E11 (antibody, V domains shown, also called NAb 54E11) VH: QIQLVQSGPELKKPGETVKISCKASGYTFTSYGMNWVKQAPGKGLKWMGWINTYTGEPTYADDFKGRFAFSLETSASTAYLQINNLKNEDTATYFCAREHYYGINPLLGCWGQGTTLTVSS VL: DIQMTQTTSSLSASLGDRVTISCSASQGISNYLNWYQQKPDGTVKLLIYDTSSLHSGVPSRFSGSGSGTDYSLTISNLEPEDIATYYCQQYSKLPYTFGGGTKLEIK	no binding
